biological target: CCK2 receptor (gastrin receptor); assay: cell-based or functional assay
Numbered stars: 1 amine (or outer) side, 2 acyl side, 3 side chain; on linkers, the order of the positions; unused ones are H or OH. Side chains are listed from the residue outwards. Ends that are not written are not given here. * marks the point of attachment. C18 diacid = O=C(O)CCCCCCCCCCCCCCCCC(=O)*; γGlu = O=C(O)[C@H](CCC(=O)[*:2])N[*:1]; AEEA = NCCOCCOCC(=O)O
observable: Relative Receptor Potency

Reference set, count: 4
[Q] Quick one: Relative Receptor Potency for QGPK([AEEA-AEEA-γGlu-C18 diacid])LEEEEEAYGWLDF-NH2 (ends and bridges not checked) [[Lys4(N-ε-#),Leu15] Gastrin-17] ?
[A] 30

[Q] What value of Relative Receptor Potency has been recorded for this entry: QGPWLEEEEEAYK([AEEA-AEEA-γGlu-C18 diacid])WLDF-NH2 (ends and bridges not checked) [[Lys13(N-ε-#),Leu15] Gastrin-17]
[A] 5

[Q] Requested field: Relative Receptor Potency. Item: QGPWLEEEEEAYGWLDK([AEEA-AEEA-γGlu-C18 diacid])-NH2 (ends and bridges not checked) [[Lys17(N-ε-#), Leu 15] Gastrin-17]
[A] 0

[Q] Looking for the measured Relative Receptor Potency of QGPWLK([AEEA-AEEA-γGlu-C18 diacid])EEEEAYGWLDF-NH2 (ends and bridges not checked) [[Lys6(N-ε-#),Leu15] Gastrin-17] , can you help?
[A] 40

[I] QGPWLEEEEEAYGWLDF-NH2 (ends and bridges not checked) [[Leu15] Gastrin-17]
[II] QGPWLEEEEEAYGWK([AEEA-AEEA-γGlu-C18 diacid])DF-NH2 (ends and bridges not checked) [[Lys15(N-ε-#)] Gastrin-17]
[Q] Could you tell me which of these two has the smaller Relative Receptor Potency figure? First: I Second: II Please indicate the selected item by its label.
[A] II
